These measurements were taken from paper doi:10.1101/718155.

System: S100A5
Protocol notes: FP; competitive
Measured quantity: Kd (µM)
# value in µM; strip the unit string

Take a look at these entries with their results.
SEGLMNVLKKIYEDG [SIP (188-202) peptide]    40
MAATAAAVVAEEDTELRDLLVQTLENSGVLNRIKAELRAAVFLALEEQ [FOP (1-48) peptide]    0.56
VLQTWLQDLLRRGLVRAAQ [TRPM4 (129-147) peptide]    2.3

**Q:** Given the binder TRTKIDWNKILS [CapZ (265-276) peptide] , what is its reported Kd?
**A:** 5.4

**Q:** NQVRPKLPLLKILHAAGAQ [MDM4 (25-43) peptide] ?
**A:** 65

**Q:** Again, but for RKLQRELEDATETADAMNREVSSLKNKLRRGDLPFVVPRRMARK [NMIIA (1894-1937) peptide]
**A:** 2.9

**Q:** How about RRLLFYKYVYKR [NCX1 (254-265) peptide] ?
**A:** 5.2
